The values you see were collected from ChEMBL document CHEMBL1151417.

System: Bel-7402
Assay: Cytotoxicity against human Bel7402 cells after 96 hrs by MTT assay
Type: functional, cell-based
Conditions: Bel-7402, 96 h
valueKind: pIC50
Notebook: values listed as pIC50 are -log10 of the concentration (mol/L).

C/C=C(/C)C(=O)O[C@H]1[C@H](OC(=O)/C(C)=C\C)[C@]2(CO)[C@H](O)C[C@]3(C)C(=CC[C@@H]4[C@@]5(C)CC[C@H](O[C@@H]6O[C@H](C(=O)O)[C@@H](O)[C@H](O[C@@H]7OC[C@H](O)[C@H](O)[C@H]7O)[C@H]6O)C(C)(C)[C@@H]5CC[C@]43C)[C@@H]2CC1(C)C [GORDONOSIDE C] | 6.15
C/C=C(/C)C(=O)O[C@H]1[C@H](OC(=O)/C(C)=C\C)[C@]2(CO)[C@H](O)C[C@]3(C)C(=CC[C@@H]4[C@@]5(C)CC[C@H](O[C@@H]6O[C@H](C(=O)O)[C@@H](O)[C@H](O[C@@H]7OC[C@H](O)[C@H](O)[C@H]7O)[C@H]6O)[C@@](C)(C(=O)OC)[C@@H]5CC[C@]43C)[C@@H]2CC1(C)C [GORDONOSIDE F] | 5.89

Field: next molecule
Item `CC(=O)O[C@H]1C(=O)[C@@]2(C)[C@H]([C@H](OC(=O)c3ccccc3)[C@]3(O)C[C@H](OC(=O)[C@H](O)[C@@H](NC(=O)c4ccccc4)c4ccccc4)C(C)=C1C3(C)C)[C@]1(OC(C)=O)CO[C@@H]1C[C@@H]2O` has what recorded pIC50?
5.20

* * *

System: BGC-823
Experiment: Cytotoxicity against human BGC823 cells after 96 hrs by MTT assay
Assay type: functional, cell-based
Conditions: BGC-823, 96 h
valueKind: IC50

C/C=C(/C)C(=O)O[C@H]1[C@H](OC(=O)/C(C)=C\C)[C@]2(CO)[C@H](O)[C@H](O)[C@]3(C)C(=CC[C@@H]4[C@@]5(C)CC[C@H](O[C@@H]6O[C@H](C(=O)O)[C@@H](O)[C@H](O[C@@H]7OC[C@H](O)[C@H](O)[C@H]7O)[C@H]6O)[C@@](C)(C(=O)OC)[C@@H]5CC[C@]43C)[C@@H]2CC1(C)C [GORDONOSIDE G] | > 10 µM
CC(=O)O[C@H]1C(=O)[C@@]2(C)[C@H]([C@H](OC(=O)c3ccccc3)[C@]3(O)C[C@H](OC(=O)[C@H](O)[C@@H](NC(=O)c4ccccc4)c4ccccc4)C(C)=C1C3(C)C)[C@]1(OC(C)=O)CO[C@@H]1C[C@@H]2O | 0.04 µM

Item C/C=C(/C)C(=O)O[C@H]1[C@H](OC(=O)/C(C)=C\C)[C@]2(CO)[C@H](OC(C)=O)C[C@]3(C)C(=CC[C@@H]4[C@@]5(C)CC[C@H](O[C@@H]6O[C@H](C(=O)O)[C@@H](O)[C@H](O[C@@H]7OC[C@H](O)[C@H](O)[C@H]7O)[C@H]6O)[C@@](C)(CO)[C@@H]5CC[C@]43C)[C@@H]2CC1(C)C [GORDONOSIDE B] has what recorded IC50?
> 10 µM

* * *

Tested on: BGC-823
Assay: Cytotoxicity against human BGC823 cells after 96 hrs by MTT assay
Format: functional, cell-based
Details: BGC-823, 96 h
pIC50: −log10 of the molar value.
valueKind: pIC50

Item C/C=C(/C)C(=O)O[C@H]1[C@H](OC(=O)/C(C)=C\C)[C@]2(CO)[C@H](O)C[C@]3(C)C(=CC[C@@H]4[C@@]5(C)CC[C@H](O[C@@H]6O[C@H](C(=O)O)[C@@H](O)[C@H](O[C@@H]7OC[C@H](O)[C@H](O)[C@H]7O)[C@H]6O)[C@@](C)(C=O)[C@@H]5CC[C@]43C)[C@@H]2CC1(C)C [GORDONOSIDE E] has what recorded pIC50?
< 5.00

* * *

System: Bel-7402
Assay: Cytotoxicity against human Bel7402 cells after 96 hrs by MTT assay
Format: functional, cell-based
Conditions: Bel-7402, 96 h
pIC50: −log10 of the molar value.
Property: pIC50; scope: individual molecules

Worked examples, 2 molecules total:
C/C=C(/C)C(=O)O[C@H]1[C@H](OC(=O)/C(C)=C\C)[C@]2(CO)[C@H](OC(C)=O)C[C@]3(C)C(=CC[C@@H]4[C@@]5(C)CC[C@H](O[C@@H]6O[C@H](C(=O)O)[C@@H](O)[C@H](O[C@@H]7OC[C@H](O)[C@H](O)[C@H]7O)[C@H]6O)C(C)(C)[C@@H]5CC[C@]43C)[C@@H]2CC1(C)C [GORDONOSIDE D] | < 5.00
C/C=C(/C)C(=O)O[C@H]1[C@H](OC(=O)/C(C)=C\C)[C@]2(CO)[C@H](O)C[C@]3(C)C(=CC[C@@H]4[C@@]5(C)CC[C@H](O[C@@H]6O[C@H](C(=O)O)[C@@H](O)[C@H](O[C@@H]7OC[C@H](O)[C@H](O)[C@H]7O)[C@H]6O)[C@@](C)(C=O)[C@@H]5CC[C@]43C)[C@@H]2CC1(C)C [GORDONOSIDE E] | 5.96

Item C/C=C(/C)C(=O)O[C@H]1[C@H](OC(=O)/C(C)=C\C)[C@]2(CO)[C@H](O)[C@H](O)[C@]3(C)C(=CC[C@@H]4[C@@]5(C)CC[C@H](O[C@@H]6O[C@H](C(=O)O)[C@@H](O)[C@H](O[C@@H]7OC[C@H](O)[C@H](O)[C@H]7O)[C@H]6O)[C@@](C)(C(=O)OC)[C@@H]5CC[C@]43C)[C@@H]2CC1(C)C [GORDONOSIDE G] has what recorded pIC50?
< 5.00
